Data origin: patent US5767291A

# reported inhibition at 0.04 µM; entries follow
- Tested on: cyclooxygenase-2 (COX-2) (Homo sapiens)
- Construct: human osteosarcoma 143 cells (which specifically express cyclooxygenase-2); endogenous in cells; host or cells: human osteosarcoma 143 cells (whole cells, and microsomes prepared from them)
- Assay method text: Whole cell cyclooxygenase assay, COX-2 (PGE2 synthesis in response to arachidonic acid, radioimmunoassay), human osteosarcoma 143 cells
- Format: cell-based
- Experimental conditions: 40 nM; read-out: Whole Cells COX-2 % inhib.
The answer is to be given in %; state only the numeric part.

Illustrative cases are given below, each with its answer.
CS(=O)(=O)c1ccc(C2=C(c3cc(F)cc(F)c3)C(=O)OC2)cc1 [Example 19] = 21
NS(=O)(=O)c1ccc(C2=C(c3ccc(Cl)c(Cl)c3)C(=O)OC2)cc1 [Example 51] = 102

State its inhibition at 0.04 µM on cyclooxygenase-2 (COX-2) (Homo sapiens): COc1ccc(C2=C(c3ccc(S(C)(=O)=O)cc3)COC2=O)cc1F [Example 36]
50

Given the entry CS(=O)(=O)c1ccc(C2=C(c3ccc(F)c(Cl)c3)C(=O)OC2)cc1 [Example 34] , what inhibition at 0.04 µM was observed with cyclooxygenase-2 (COX-2) (Homo sapiens)?
80

====

- Tested on: cyclooxygenase-1 (COX-1) (Homo sapiens, UniProt P23219)
- Construct: human U-937 cells (which specifically express cyclooxygenase-1); endogenous in cells; host or cells: human U-937 cells (whole cells, and microsomes prepared from them)
- Sequence (P23219 24-599): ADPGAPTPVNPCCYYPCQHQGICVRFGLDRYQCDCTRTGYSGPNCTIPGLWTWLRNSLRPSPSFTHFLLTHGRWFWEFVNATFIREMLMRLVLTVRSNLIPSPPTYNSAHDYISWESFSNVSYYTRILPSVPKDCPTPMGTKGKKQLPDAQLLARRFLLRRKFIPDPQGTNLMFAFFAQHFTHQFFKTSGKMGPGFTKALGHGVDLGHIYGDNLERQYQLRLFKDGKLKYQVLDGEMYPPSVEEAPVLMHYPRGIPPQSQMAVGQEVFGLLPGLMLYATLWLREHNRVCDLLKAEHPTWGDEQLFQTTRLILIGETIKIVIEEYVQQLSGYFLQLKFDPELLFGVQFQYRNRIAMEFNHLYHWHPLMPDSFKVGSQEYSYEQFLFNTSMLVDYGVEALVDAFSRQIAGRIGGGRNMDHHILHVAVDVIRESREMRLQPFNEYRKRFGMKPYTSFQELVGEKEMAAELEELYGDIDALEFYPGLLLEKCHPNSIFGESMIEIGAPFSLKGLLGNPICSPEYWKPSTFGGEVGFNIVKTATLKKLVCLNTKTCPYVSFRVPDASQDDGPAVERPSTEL
- Assay method text: Microsomal cyclooxygenase assay, COX-1 (PGE2 synthesis, microsomes of human U-937 cells)
- Type: biochemical
- Experimental conditions: 10 nM; read-out: Microsomes COX-1 % inhib.
- Method: Compounds were tested as inhibitors of cyclooxygenase activity in whole cell and microsomal cyclooxygenase assays. Both of these assays measured prostaglandin E2 (PGE2) synthesis in response to arachidonic acid, using a radioimmunoassay. Cells used for whole cell assays, and from which microsomes were prepared for microsomal assays, were human osteosarcoma 143 cells (which specifically express cyclooxygenase-2) and human U-937 cells (which specifically express cyclooxygenase-1). […]
Experimental readout: inhibition at 0.01 µM (%)
Give just the number in %; leave the unit off.

NS(=O)(=O)c1ccc(-c2ccsc2C2CCCCC2)cc1 = 2
CC(C)c1cc(-c2ccc(S(N)(=O)=O)cc2)c(-c2ccc(F)cc2)s1 = 19

# inhibition at 0.01 µM lookup, item NS(=O)(=O)c1ccc(-c2sccc2-c2ccc(F)cc2)cc1
7

inhibition at 0.01 µM lookup needed for NS(=O)(=O)c1ccc(-c2ccsc2-c2ccc(F)cc2)cc1 , thanks.
25

Consider the molecule O=C(NS(=O)(=O)c1ccc(-c2ccsc2-c2ccc(F)cc2)cc1)C(F)(F)F and give its measured inhibition at 0.01 µM.
29

Please look up its inhibition at 0.01 µM: CS(=O)(=O)c1ccc(-c2cc(C(=O)O)sc2-c2ccc(C(=O)O)cc2)cc1
31

====

Parameter: inhibition at 0.16 µM. Scope: all listed entries.
- Tested on: cyclooxygenase-2 (COX-2) (Homo sapiens)
- Construct: human osteosarcoma 143 cells (which specifically express cyclooxygenase-2); endogenous in cells; host or cells: human osteosarcoma 143 cells (whole cells, and microsomes prepared from them)
- Assay method text: Whole cell cyclooxygenase assay, COX-2 (PGE2 synthesis in response to arachidonic acid, radioimmunoassay), human osteosarcoma 143 cells
- Type: cell-based
- Experimental conditions: 160 nM; read-out: Whole Cells COX-2 % inhib.
- Protocol: Compounds were tested as inhibitors of cyclooxygenase activity in whole cell and microsomal cyclooxygenase assays. Both of these assays measured prostaglandin E2 (PGE2) synthesis in response to arachidonic acid, using a radioimmunoassay. Cells used for whole cell assays, and from which microsomes were prepared for microsomal assays, were human osteosarcoma 143 cells (which specifically express cyclooxygenase-2) and human U-937 cells (which specifically express cyclooxygenase-1). […]
Number only, in %; omit the unit.

CSc1ccc(C2=C(c3ccc(S(C)(=O)=O)cc3)COC2=O)cc1 [Example 40] = 96
CS(=O)(=O)c1ccc(C2=C(c3ccc(Cl)cc3F)C(=O)OC2)cc1 [Example 27] = 97
CS(=O)(=O)c1ccc(C2=C(c3cccc(Cl)c3)C(=O)OC2)cc1 [Example 29] = 85
CS(=O)(=O)c1ccc(C2=C(c3ccc(F)cc3Cl)C(=O)OC2)cc1 [Example 30] = 30
CS(=O)(=O)c1ccc(C2=C(c3ccc(Br)c(F)c3)C(=O)OC2)cc1 [Example 47] = 101
CS(=O)(=O)c1ccc(C2=C(c3ccc(Br)cc3Cl)C(=O)OC2)cc1 [Example 48] = 47
CS(=O)(=O)c1ccc(C2=C(c3ccc(C(F)(F)F)cc3)C(=O)OC2)cc1 [Example 35] = 83
CS(=O)(=O)c1ccc(C2=C(c3ccc(Br)cc3F)C(=O)OC2)cc1 [Example 44] = 106

Which value of inhibition at 0.16 µM has been reported for CS(=O)(=O)c1ccc(C2=C(c3ccc(F)c(F)c3)C(=O)OC2)cc1 [Example 16] in the records?
85

Give its inhibition at 0.16 µM value. Item: COc1ccc(C2=C(c3ccc(S(C)(=O)=O)cc3)COC2=O)cc1 [Example 22]
98

For COc1ccc(C2=C(c3ccc(S(C)(=O)=O)cc3)COC2=O)cc1F [Example 36] , what is its reported inhibition at 0.16 µM?
89

Which inhibition at 0.16 µM is listed for CS(=O)(=O)c1ccc(C2=C(c3ccc(F)cc3F)C(=O)OC2)cc1 [Example 15] ?
95

Name the recorded inhibition at 0.16 µM for COc1ccc(C2=C(c3ccc(S(N)(=O)=O)cc3)COC2=O)cc1Br [Example 54] .
99

Recorded inhibition at 0.16 µM for CS(=O)(=O)c1ccc(C2=C(c3ccc(Br)c(Br)c3)C(=O)OC2)cc1 [Example 45] , please?
101

Request the reported inhibition at 0.16 µM associated with CS(=O)(=O)c1ccc(C2=C(c3ccccc3Cl)C(=O)OC2)cc1 [Example 24]
78

Item CS(=O)(=O)c1ccc(C2=C(c3cc(F)ccc3F)C(=O)OC2)cc1 [Example 18] has what recorded inhibition at 0.16 µM?
58

Can you look up the measured inhibition at 0.16 µM of CS(=O)(=O)c1ccc(C2=C(c3cc(F)cc(F)c3)C(=O)OC2)cc1 [Example 19] for me?
59

Consider the molecule CS(=O)(=O)c1ccc(C2=C(c3c(F)cccc3Cl)C(=O)OC2)cc1 [Example 42] and give its measured inhibition at 0.16 µM.
44

====

// reported inhibition at 0.04 µM per item
- Tested on: cyclooxygenase-2 (COX-2) (Homo sapiens, UniProt P35354)
- Construct: human osteosarcoma 143 cells (which specifically express cyclooxygenase-2); endogenous in cells; host or cells: human osteosarcoma 143 cells (whole cells, and microsomes prepared from them)
- Assay method text: Whole cell cyclooxygenase assay, COX-2 (PGE2 synthesis in response to arachidonic acid, radioimmunoassay), human osteosarcoma 143 cells
- Type: cell-based
- Experimental conditions: 40 nM; read-out: Whole Cells COX-2 % inhib.
Output spec: scalar in %, unitless text.

Recorded results for 3 compounds are shown here.
COc1ccc(C2=C(c3ccc(S(C)(=O)=O)cc3)COC2=O)cc1Br [Example 38] = 63
CS(=O)(=O)c1ccc(C2=C(c3ccc(Br)c(F)c3)C(=O)OC2)cc1 [Example 47] = 74
CS(=O)(=O)c1ccc(C2=C(c3ccc(Cl)c(Cl)c3)C(=O)OC2)cc1 [Example 32] = 92

Now for the compound whose inhibition at 0.04 µM we want.
Fill blank: measured inhibition at 0.04 µM of the compound Cc1ccc(C2=C(c3ccc(S(C)(=O)=O)cc3)COC2=O)cc1Br [Example 43] is ____.
101

====

- Tested on: cyclooxygenase-2 (COX-2) (Homo sapiens, UniProt P35354)
- Construct: human osteosarcoma 143 cells (which specifically express cyclooxygenase-2); endogenous in cells; host or cells: human osteosarcoma 143 cells (whole cells, and microsomes prepared from them)
- Assay method text: Microsomal cyclooxygenase assay, COX-2 (PGE2 synthesis, microsomes of human osteosarcoma 143 cells)
- Format: biochemical
- Experimental conditions: 10 nM; read-out: Microsomes COX-2 % inhib.
The following compounds are listed with their measured inhibition at 0.01 µM values.
Numbers only here, please. The scale is %.

CS(=O)(=O)c1ccc(-c2cc(C(=O)O)sc2-c2ccc(C(=O)O)cc2)cc1 = 43
CC(C)c1cc(-c2ccc(S(N)(=O)=O)cc2)c(-c2ccc(F)cc2)s1 = 33
NS(=O)(=O)c1ccc(-c2ccsc2C2CCCCC2)cc1 = 47
O=C(NS(=O)(=O)c1ccc(-c2ccsc2-c2ccc(F)cc2)cc1)C(F)(F)F = 45

# lookup: inhibition at 0.01 µM of NS(=O)(=O)c1ccc(-c2sccc2-c2ccc(F)cc2)cc1
52

Look up inhibition at 0.01 µM for this compound: NS(=O)(=O)c1ccc(-c2ccsc2-c2ccc(F)cc2)cc1
49

====

- Tested on: cyclooxygenase-2 (COX-2) (Homo sapiens)
- Construct: human osteosarcoma 143 cells (which specifically express cyclooxygenase-2); endogenous in cells; host or cells: human osteosarcoma 143 cells (whole cells, and microsomes prepared from them)
- Sequence (P35354 18-604): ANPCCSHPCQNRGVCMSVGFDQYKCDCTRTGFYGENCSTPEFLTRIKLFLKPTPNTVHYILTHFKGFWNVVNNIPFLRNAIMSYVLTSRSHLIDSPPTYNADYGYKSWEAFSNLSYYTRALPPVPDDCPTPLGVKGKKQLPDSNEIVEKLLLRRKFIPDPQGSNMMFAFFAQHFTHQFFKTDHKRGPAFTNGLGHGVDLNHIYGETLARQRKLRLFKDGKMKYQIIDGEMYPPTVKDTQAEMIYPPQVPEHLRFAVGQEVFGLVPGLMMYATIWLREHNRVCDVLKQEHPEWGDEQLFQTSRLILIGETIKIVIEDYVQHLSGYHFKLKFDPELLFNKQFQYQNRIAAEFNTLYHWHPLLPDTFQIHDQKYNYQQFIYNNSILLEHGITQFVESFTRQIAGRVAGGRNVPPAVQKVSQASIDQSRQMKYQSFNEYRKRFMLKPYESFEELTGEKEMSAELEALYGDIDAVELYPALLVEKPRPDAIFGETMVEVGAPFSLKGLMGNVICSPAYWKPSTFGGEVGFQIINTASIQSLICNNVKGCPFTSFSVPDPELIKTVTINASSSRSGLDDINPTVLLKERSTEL
- Assay method text: Whole cell cyclooxygenase assay, COX-2 (PGE2 synthesis in response to arachidonic acid, radioimmunoassay), human osteosarcoma 143 cells
- Format: cell-based
- Experimental conditions: 40 nM; read-out: Whole Cells COX-2 % inhib.
Response key: met means inhibition at 0.04 µM >= 80%; not met means inhibition at 0.04 µM < 80%.

The examples below pair each entry with its known result.
CS(=O)(=O)c1ccc(C2=C(c3ccc(Cl)c(F)c3)C(=O)OC2)cc1 = met
CS(=O)(=O)c1ccc(C2=C(c3ccc(Br)cc3)C(=O)OC2)cc1 = met
CS(=O)(=O)c1ccc(C2=C(c3ccccc3Cl)C(=O)OC2)cc1 = not met

Exam item: decide whether the reported inhibition at 0.04 µM for CS(=O)(=O)c1ccc(C2=C(c3cc(F)ccc3F)C(=O)OC2)cc1 is at least 80%.
not met
